- tested target: FVa heavy chain (UniProt P12259 29-737)
- Sequence (P12259 29-737): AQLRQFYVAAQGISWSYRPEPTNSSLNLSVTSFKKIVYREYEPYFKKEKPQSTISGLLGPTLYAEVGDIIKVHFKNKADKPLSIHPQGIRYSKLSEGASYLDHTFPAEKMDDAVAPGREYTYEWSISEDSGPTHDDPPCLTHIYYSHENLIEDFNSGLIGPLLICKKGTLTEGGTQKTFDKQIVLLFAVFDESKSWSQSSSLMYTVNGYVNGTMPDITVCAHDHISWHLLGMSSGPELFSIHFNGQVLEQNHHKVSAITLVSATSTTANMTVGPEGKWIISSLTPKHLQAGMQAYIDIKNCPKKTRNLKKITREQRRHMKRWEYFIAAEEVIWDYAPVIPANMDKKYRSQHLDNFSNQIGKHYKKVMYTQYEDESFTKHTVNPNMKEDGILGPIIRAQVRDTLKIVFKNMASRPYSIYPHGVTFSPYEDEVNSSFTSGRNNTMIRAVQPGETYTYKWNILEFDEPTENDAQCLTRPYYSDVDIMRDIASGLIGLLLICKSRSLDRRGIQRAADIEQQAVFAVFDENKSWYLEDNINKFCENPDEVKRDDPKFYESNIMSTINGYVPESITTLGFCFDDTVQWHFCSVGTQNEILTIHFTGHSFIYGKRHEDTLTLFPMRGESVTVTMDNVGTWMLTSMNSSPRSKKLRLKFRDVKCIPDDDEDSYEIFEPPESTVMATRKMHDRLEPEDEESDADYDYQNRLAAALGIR
- method summary: SPR
pKd: −log10 of the molar value.

{"binder": "T18.3-Bio (structured_RNA, all C and U 2'-fluoro) RNA: GGACUUGGAUAACCUCACCGCAAUGGCGGCUUGUCAGACGACUCGCUGAGGAUCCGAG", "pKd": 6.95}
